Assay method text: Liver microsome (LM) intrinsic clearance, rat
Format: in vitro ADME
Is LM CLint at least 10 μL/min/mg/protein? Then YES. If not, NO.

C[C@H](Nc1nc(C(=O)N2CC[C@H](F)C2)c2sccc2n1)c1ccccn1: YES
Cc1cncc(CNc2nc(C(=O)N3CCC3)c3sccc3n2)c1: YES
C[C@H](Nc1nc(C(=O)N2CC[C@H](O)C2)c2sccc2n1)c1ccccn1: NO
O=C(c1nc(NCc2cncc(F)c2)nc2ccsc12)N1CC[C@@H](F)C1: YES
O=C(c1nc(NCc2cncc(F)c2)nc2ccsc12)N1CC[C@@H](O)C1: YES
C[C@H](Nc1nc(C(=O)N2CC[C@H](O)C2)c2sccc2n1)c1cccnc1: NO
CO[C@@H]1CCN(C(=O)c2nc(N[C@@H](C)c3cccnc3)nc3ccsc23)C1: YES
O=C(c1nc(NCc2cncc(F)c2)nc2ccsc12)N1CCC1: YES

Consider the additional compound presented here.
Does the reported LM CLint for C[C@H](Nc1nc(C(=O)N2CC[C@H](F)C2)c2sccc2n1)c1cccnc1 fall at or above the 10 μL/min/mg/protein mark?
YES

The origin of these recorded values is patent US11254686B1.
